# assay.notes: Antifungal activity against Rhizomucor variabilis after 48 hrs by microdilution method
# Assay type: functional
Below, each entry is listed with its recorded MIC.
parameter: MIC (µg/mL)

[[record]]
compound = "CC[C@@H]([C@H](C)O)n1ncn(-c2ccc(N3CCN(c4ccc(OC[C@@H]5CO[C@@](Cn6cncn6)(c6ccc(F)cc6F)C5)cc4)CC3)cc2)c1=O"
experimental_result = 16

[[record]]
compound = "CCC(C)n1ncn(-c2ccc(N3CCN(c4ccc(OCC5COC(Cn6cncn6)(c6ccc(Cl)cc6Cl)O5)cc4)CC3)cc2)c1=O (stereo unspecified)"
experimental_result = 16

[[record]]
compound = "CN(C/C=C/C#CC(C)(C)C)Cc1cccc2ccccc12"
experimental_result = 32

[[record]]
compound = "C[C@@H](c1ncncc1F)[C@](O)(Cn1cncn1)c1ccc(F)cc1F"
experimental_result = 16

[[record]]
compound = "C[C@@H]1[C@H](O)[C@@H](C)/C=C/C=C/C=C/C=C/C=C/C=C/C=C/[C@H](O[C@@H]2O[C@H](C)[C@@H](O)[C@H](N)[C@@H]2O)C[C@@H]2O[C@](O)(C[C@@H](O)C[C@@H](O)[C@H](O)CC[C@@H](O)C[C@@H](O)CC(=O)O[C@H]1C)C[C@H](O)[C@H]2C(=O)O"
experimental_result = 0.09

[[record]]
compound = "C[C@@H](c1nc(-c2ccc(C#N)cc2)cs1)[C@](O)(Cn1cncn1)c1ccc(F)cc1F"
experimental_result = 16


---

# System: Cunninghamella bertholletiae
# assay.notes: Antifungal activity against Cunninghamella bertholletiae after 24 hrs by microdilution method
# Type: functional
Each record is given class 1 if its reported MIC is strictly below 7 µg/mL. Records at or above 7 µg/mL are given class 0.

[[record]]
compound = "C[C@@H](c1ncncc1F)[C@](O)(Cn1cncn1)c1ccc(F)cc1F"
label_value = "class 0"

[[record]]
compound = "CCC(C)n1ncn(-c2ccc(N3CCN(c4ccc(OCC5COC(Cn6cncn6)(c6ccc(Cl)cc6Cl)O5)cc4)CC3)cc2)c1=O (stereo unspecified)"
label_value = "class 1"

[[record]]
compound = "CC[C@@H]([C@H](C)O)n1ncn(-c2ccc(N3CCN(c4ccc(OC[C@@H]5CO[C@@](Cn6cncn6)(c6ccc(F)cc6F)C5)cc4)CC3)cc2)c1=O"
label_value = "class 1"

[[record]]
compound = "C[C@@H](c1nc(-c2ccc(C#N)cc2)cs1)[C@](O)(Cn1cncn1)c1ccc(F)cc1F"
label_value = "class 0"

[[record]]
compound = "CN(C/C=C/C#CC(C)(C)C)Cc1cccc2ccccc12"
label_value = "class 1"


---

# assay.notes: Antifungal activity against Rhizopus microsporus after 24 hrs by microdilution method
# Assay type: functional
Decide using MIC alone. Strictly below 0.9 µg/mL: 1 (yes). Equal to or above 0.9 µg/mL: 0 (no).

[[record]]
molecule = "C[C@@H](c1ncncc1F)[C@](O)(Cn1cncn1)c1ccc(F)cc1F [VORICONAZOLE]"
label_value = "0 (no)"

[[record]]
molecule = "CCC(C)n1ncn(-c2ccc(N3CCN(c4ccc(OCC5COC(Cn6cncn6)(c6ccc(Cl)cc6Cl)O5)cc4)CC3)cc2)c1=O (stereo unspecified) [ITRACONAZOLE]"
label_value = "0 (no)"

[[record]]
molecule = "CN(C/C=C/C#CC(C)(C)C)Cc1cccc2ccccc12 [TERBINAFINE]"
label_value = "1 (yes)"

[[record]]
molecule = "C[C@@H]1[C@H](O)[C@@H](C)/C=C/C=C/C=C/C=C/C=C/C=C/C=C/[C@H](O[C@@H]2O[C@H](C)[C@@H](O)[C@H](N)[C@@H]2O)C[C@@H]2O[C@](O)(C[C@@H](O)C[C@@H](O)[C@H](O)CC[C@@H](O)C[C@@H](O)CC(=O)O[C@H]1C)C[C@H](O)[C@H]2C(=O)O [AMPHOTERICIN B]"
label_value = "1 (yes)"

[[record]]
molecule = "CC[C@@H]([C@H](C)O)n1ncn(-c2ccc(N3CCN(c4ccc(OC[C@@H]5CO[C@@](Cn6cncn6)(c6ccc(F)cc6F)C5)cc4)CC3)cc2)c1=O [POSACONAZOLE]"
label_value = "1 (yes)"

